// provenance: PubChem BioAssay AID2060338

- System: 556581-035-R-J1-PDC spheroids with HUVEC/MSC, viability;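 further: spheroids exposed to compounds for 7 days before readout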
- Procedure summary: Anticancer human tumor 556581-035-R-J1-PDC patient-derived ovarian carcinoma cell line growth inhibition [IpAb]
- Setup conditions: second compound 0.316 µM; first compound 0.000316 µM; hits give low values

| Compound | Readout units | viability, T/C |
| --- | --- | --- |
| Cn1ncnc1[C@H]1c2n[nH]c(=O)c3cc(F)cc(c23)N[C@@H]1c1ccc(F)cc1 + CCN1CCN(Cc2ccc(Nc3ncc(F)c(-c4cc(F)c5nc(C)n(C(C)C)c5c4)n3)nc2)CC1 | % | 70.8 |
| CC(C)n1nc(-c2ccc3oc(N)nc3c2)c2c(N)ncnc21 + CCN1CCN(Cc2ccc(Nc3ncc(F)c(-c4cc(F)c5nc(C)n(C(C)C)c5c4)n3)nc2)CC1 | % | 80.1 |
| Cn1ncnc1[C@H]1c2n[nH]c(=O)c3cc(F)cc(c23)N[C@@H]1c1ccc(F)cc1 + CC(C)NCC(C(=O)N1CCN(c2ncnc3c2C(C)CC3O)CC1)c1ccc(Cl)cc1 | % | 92.7 |
| CC(C)n1nc(-c2ccc3oc(N)nc3c2)c2c(N)ncnc21 + CC(C)NCC(C(=O)N1CCN(c2ncnc3c2C(C)CC3O)CC1)c1ccc(Cl)cc1 | % | 69.5 |
